Consider the following pKi data for UniProt:P30542, collected from several reports.
Sequence (P30542 whole entry): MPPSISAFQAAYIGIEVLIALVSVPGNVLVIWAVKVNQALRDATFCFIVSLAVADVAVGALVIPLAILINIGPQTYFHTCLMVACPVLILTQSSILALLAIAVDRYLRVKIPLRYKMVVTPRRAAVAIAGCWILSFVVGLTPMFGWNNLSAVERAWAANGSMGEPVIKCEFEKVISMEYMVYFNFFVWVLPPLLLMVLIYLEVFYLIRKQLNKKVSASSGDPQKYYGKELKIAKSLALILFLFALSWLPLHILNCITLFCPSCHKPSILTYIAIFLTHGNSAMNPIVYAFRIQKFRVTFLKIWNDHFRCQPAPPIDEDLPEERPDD
pKi: −log10 of the molar value.

molecule | pKi
Cn1cc2c(nc(NC3CCCC3)n3nc(-c4ccco4)nc23)n1 | 7.10
CCn1c(=O)[nH]c2nc(-c3cnn(Cc4ccccc4)c3)[nH]c2c1=O | 5.25
O=C(COc1ccccc1)Nc1nc2nn(CCCc3ccccc3)cc2c2nc(-c3ccco3)nn12 | 7.30
C=CCN1C(=O)N2CC(CC)N=C2c2[nH]c(-c3cc(OC)nn3C)nc21 (racemic) | 5.82
N#Cc1c(-c2ccccc2)nc(NC(=O)C2CCCC2)nc1-c1ccc2c(c1)OCO2 | 8.55
